Just for reference, PubChem BioAssay (NCI) is where these values come from.

Tested on: SF-295 CNS
PROTOCOL: NCI tumour cell line growth inhibition, 48 h
Below: a set of entries, each annotated with reported TGI.

{"columns": ["COMPOUND", "SYSTEM_TESTED", "TGI"],
 "data": [
  ["Cc1ccc(CN2CCC(C(=O)Nc3ccc(-c4cc5ccccc5[nH]4)cc3)CC2)o1", "SF-295 CNS", "> 100 µM"],
  ["FC(F)(F)c1cccc(Nc2nc(-c3ccccc3)nc3ncccc23)c1", "SF-295 CNS", "8.34 µM"],
  ["CCCCCCCCCCCCCCNC(=O)CCC(NC(=O)c1ccc(N(C)Cc2cnc3nc(N)nc(N)c3n2)cc1)C(=O)NCCCCCCCCCCCCCC (stereo unspecified)", "SF-295 CNS", "28.9 µM"],
  ["C=CC(=O)Nc1cc(Nc2ncc(C(=O)OC(C)C)c(-c3cn(C)c4ccccc34)n2)c(OC)cc1N(C)CCN(C)C", "SF-295 CNS", "10.6 µM"],
  ["O=C(Nc1nc2ccc([N+](=O)[O-])cc2s1)C(=O)C(C1OC(=O)c2ccccc21)[N+](=O)[O-] (stereo unspecified)", "SF-295 CNS", "> 100 µM"],
  ["Cc1ccc2c(C)c3c(ccc4ccccc43)c[n+]2c1", "SF-295 CNS", "31.7 µM"],
  ["COc1ccc(C2CC(c3c(O)ccc4ccccc34)=NN2C(C)=O)cc1OC (stereo unspecified)", "SF-295 CNS", "> 100 µM"],
  ["Cc1nc2c(ccc3ncccc32)[nH]1", "SF-295 CNS", "> 100 µM"],
  ["CC1(C(=O)O)CCC[C@@]2(C)C1CC[C@@]1(C)c3cocc3CCC21 (stereo partly specified)", "SF-295 CNS", "> 100 µM"],
  ["O=C1/C(=C/c2ccc(O)c(O)c2)CCC/C1=C\\c1ccc(O)c(O)c1", "SF-295 CNS", "22.1 µM"],
  ["CCC(C(=O)O)c1ccc(OC)cc1 (stereo unspecified)", "SF-295 CNS", "> 100 µM"],
  ["COC(=O)C([C@H](NC1(c2ccccc2)c2ccccc2-c2ccccc21)C(=O)OC)N(NC(=O)OCc1ccccc1)C(=O)OCc1ccccc1 (mixture of isomers)", "SF-295 CNS", "> 100 µM"],
  ["O=C(N/N=C(/COc1ccc(Cl)cc1)N=Cc1ccncc1)c1ccncc1", "SF-295 CNS", "> 100 µM"],
  ["COC(=O)/C(C#N)=C1\\NC(=O)c2ccccc21", "SF-295 CNS", "> 100 µM"],
  ["COc1ccccc1N1C(=O)C2c3[nH]c4ccccc4c3C3CCC(C(C)(C)C)CC3C2C1=O (stereo unspecified)", "SF-295 CNS", "> 100 µM"],
  ["CN1CCc2cc(N)cc3c2C1Cc1ccc(O)c(O)c1-3 (stereo unspecified)", "SF-295 CNS", "> 100 µM"],
  ["O=c1ccc(-c2ccccc2)n[nH]1", "SF-295 CNS", "> 100 µM"],
  ["O=C(Nc1ccccc1)c1c(O)[nH]c(=S)[nH]c1=O", "SF-295 CNS", "108 µM"],
  ["Cc1cc(N(CCC#N)CCC#N)ccc1N=Nc1ccc(S(N)(=O)=O)cc1", "SF-295 CNS", "> 100 µM"],
  ["Cc1cn2c(/C=N/N=C(N)N)c(-c3cccc([N+](=O)[O-])c3)nc2s1", "SF-295 CNS", "3.3 µM"],
  ["COC(=O)c1c(C)cccc1C1CN=NC12Cc1ccc(C)cc1C2=O (stereo unspecified)", "SF-295 CNS", "> 100 µM"],
  ["N#Cc1c(N2CCCC2)ncn(-c2ccccc2)c1=O", "SF-295 CNS", "> 100 µM"],
  ["C1CN(c2nc3c(nnc4nc(N5CCOCC5)sc43)s2)CCO1", "SF-295 CNS", "> 100 µM"],
  ["Cc1ccc(NC(=O)Nc2ccc(-c3cccnc3)cc2N2CCC(CO)CC2)cc1", "SF-295 CNS", "> 100 µM"],
  ["CCCC1C(=O)CCc2c(OC)ccc(OC)c21 (stereo unspecified)", "SF-295 CNS", "> 100 µM"],
  ["C=CCO[C@H]1CO[C@H]2[C@@H]1OC[C@@H]2Oc1ccc(Nc2ccnc(Nc3ccc(O[C@H]4CO[C@H]5[C@@H]4OC[C@@H]5OCC=C)c(Cl)c3)n2)cc1Cl", "SF-295 CNS", "3.49 µM"],
  ["O=C(CCc1nc(=S)[nH][nH]1)Nc1cc(Cl)c(Cl)cc1Cl", "SF-295 CNS", "> 100 µM"],
  ["COc1ccc(-c2cc(O)c3nc4ccccc4n3c2)cc1", "SF-295 CNS", "> 100 µM"],
  ["COC1/C=C/OC2(C)Oc3c(C)c(O)c4c(O)c(c(/C=N/Nc5ccc([N+](=O)[O-])cc5[N+](=O)[O-])c(O)c4c3C2=O)NC(=O)C(C)=C/C=C/C(C)C(O)C(C)C(O)C(C)C(OC(C)=O)C1C (stereo unspecified)", "SF-295 CNS", "20.1 µM"],
  ["Cc1ccccc1C(=O)N1CCc2c([nH]c3ccccc23)C1", "SF-295 CNS", "> 100 µM"],
  ["Nn1c(-c2ccccc2)nn(C(=O)c2ccccc2)c1=O", "SF-295 CNS", "> 100 µM"]
]}
